target: HLA-A*30:02; assay: IEDB peptide-MHC binding, purified MHC/competitive/radioactivity; filed as Kd, often an IC50 or EC50 that approximates it; bounds were set here for any values at or beyond the usual limits of such assays; conditions: source organism: Dengue virus 1 Brazil/97-11/1997
pKd: −log10 of the molar value.
observation-type: pKd

In [3]: df
Out[3]:
   sequence_record  measurement
0       GVPLLALGCY         7.42

* * *

target: HLA-B*08:02; assay: IEDB peptide-MHC binding, purified MHC/direct/fluorescence; filed as Kd, often an IC50 or EC50 that approximates it; bounds were set here for any values at or beyond the usual limits of such assays; settings: source organism: Orthonairovirus haemorrhagiae
observation-type: Kd

>>> print(df.to_string())
   sequence_record  measurement
0        MIRRRNQIL       843 nM

* * *

molecular target: HLA-B*46:01; test: IEDB peptide-MHC binding, purified MHC/direct/fluorescence; filed as Kd, often an IC50 or EC50 that approximates it; bounds were set here for any values at or beyond the usual limits of such assays; conditions: source organism: Bacillus anthracis
pKd: −log10 of the molar value.
observation-type: pKd

>>> df
   sequence_record  observation_type  measurement
0        FTDNNELEF               pKd       ≤ 4.70

* * *

biological target: HLA-B*40:02; test: IEDB peptide-MHC binding, cellular MHC/competitive/fluorescence; bounds were set here for any values at or beyond the usual limits of such assays; details: source organism: Homo sapiens
pIC50: −log10 of the molar value.
observation-type: pIC50

>>> print(df.to_string())
   sequence_record  observation_type  measurement
0        REGSFRVTT             pIC50         5.72

* * *

target: HLA-B*15:01; assay: IEDB peptide-MHC binding, purified MHC/direct/fluorescence; filed as Kd, often an IC50 or EC50 that approximates it; bounds were set here for any values at or beyond the usual limits of such assays; conditions: source organism: Orthohantavirus hantanense
pKd: −log10 of the molar value.
observation-type: pKd

In [3]: df
Out[3]:
   sequence_record  test_system  measurement
0        FQHERLGQF  HLA-B*15:01         7.69

* * *

target: HLA-A*68:02; test: IEDB peptide-MHC binding, purified MHC/competitive/radioactivity; filed as Kd, often an IC50 or EC50 that approximates it; bounds were set here for any values at or beyond the usual limits of such assays; details: source organism: Dengue virus 1 Singapore/S275/1990
pKd: −log10 of the molar value.
pKd values, listed per item
observation-type: pKd

In [3]: df
Out[3]:
   sequence_record  observation_type  measurement
0        CVMASSVLL               pKd         8.84
1       KTMAMVLSIV               pKd         7.28

* * *

molecular target: HLA-A*02:01; assay: IEDB peptide-MHC binding, purified MHC/direct/fluorescence; filed as Kd, often an IC50 or EC50 that approximates it; bounds were set here for any values at or beyond the usual limits of such assays; conditions: source organism: Camelpox virus M-96
Kd values, listed per item
observation-type: Kd (nM)

In [3]: df
Out[3]:
   sequence_record  output_unit  measurement
0        RMIAISAKV           nM          3.4
1        YFDDVTAFL           nM            5

* * *

biological target: HLA-A*31:01; assay: IEDB peptide-MHC binding, purified MHC/direct/fluorescence; filed as Kd, often an IC50 or EC50 that approximates it; bounds were set here for any values at or beyond the usual limits of such assays; conditions: source organism: Yersinia pestis
pKd: −log10 of the molar value.
observation-type: pKd

>>> df
   sequence_record  measurement
0        LTDEDKQNQ       ≤ 4.70

* * *

molecular target: HLA-A*02:01; experiment: IEDB peptide-MHC binding, purified MHC/competitive/fluorescence; filed as Kd, often an IC50 or EC50 that approximates it; bounds were set here for any values at or beyond the usual limits of such assays; conditions: source organism: Rickettsia typhi str. Wilmington
observation-type: Kd

>>> print(df.to_string())
   sequence_record  observation_type  measurement
0        QLEVRSTEV                Kd      ≥ 20 µM

* * *

target: HLA-A*02:01; assay: IEDB peptide-MHC binding, purified MHC/direct/fluorescence; filed as Kd, often an IC50 or EC50 that approximates it; bounds were set here for any values at or beyond the usual limits of such assays; settings: source organism: Brucella abortus 2308
observation-type: Kd (µM)

   sequence_record  test_system  observation_type  output_unit  measurement
0        YVDIIGLSV  HLA-A*02:01                Kd           µM        0.056

* * *

biological target: HLA-A*68:01; test: IEDB peptide-MHC binding, purified MHC/competitive/radioactivity; filed as Kd, often an IC50 or EC50 that approximates it; bounds were set here for any values at or beyond the usual limits of such assays; conditions: source organism: Mammarenavirus guanaritoense
Kd values, listed per item
observation-type: Kd

   sequence_record  measurement
0        CCNWLDRCR    ≥ 77.6 µM
1        FFTTSLFLH    ≥ 24.8 µM

* * *

target: HLA-B*53:01; test: IEDB peptide-MHC binding, purified MHC/competitive/radioactivity; filed as Kd, often an IC50 or EC50 that approximates it; bounds were set here for any values at or beyond the usual limits of such assays; settings: source organism: SARS coronavirus Tor2
pKd: −log10 of the molar value.
observation-type: pKd

In [3]: df
Out[3]:
   sequence_record  test_system  measurement
0        RPIFEWIEA  HLA-B*53:01         6.63

* * *

molecular target: HLA-B*07:02; test: IEDB peptide-MHC binding, purified MHC/direct/fluorescence; filed as Kd, often an IC50 or EC50 that approximates it; bounds were set here for any values at or beyond the usual limits of such assays; details: source organism: Escherichia coli O157:H7
observation-type: Kd (nM)

>>> print(df.to_string())
   sequence_record  output_unit  value_modifier  measurement
0        LPQRHHIML           nM               =          1.5
1        RRNDVARIF           nM               ≥        20000
2        LPPERRQPF           nM               =          376

* * *

molecular target: HLA-A*03:01; assay: IEDB peptide-MHC binding, purified MHC/direct/fluorescence; filed as Kd, often an IC50 or EC50 that approximates it; bounds were set here for any values at or beyond the usual limits of such assays; conditions: source organism: Cowpox virus
pKd: −log10 of the molar value.
observation-type: pKd

In [3]: df
Out[3]:
   sequence_record  observation_type  measurement
0        YPPPRYITV               pKd       ≤ 4.70

* * *

molecular target: HLA-B*40:01; test: IEDB peptide-MHC binding, purified MHC/direct/fluorescence; filed as Kd, often an IC50 or EC50 that approximates it; bounds were set here for any values at or beyond the usual limits of such assays; details: source organism: Pseudomonas fluorescens
pKd: −log10 of the molar value.
observation-type: pKd

>>> df
   sequence_record  measurement
0        AEGTGITHL         7.26

* * *

molecular target: HLA-A*02:01; assay: IEDB peptide-MHC binding, purified MHC/competitive/fluorescence; filed as Kd, often an IC50 or EC50 that approximates it; bounds were set here for any values at or beyond the usual limits of such assays; settings: source organism: Influenza A virus (A/Memphis/1/1978(H1N1))
observation-type: Kd (µM)

   sequence_record  test_system  observation_type  measurement
0        ILHLILWIL  HLA-A*02:01                Kd            6

* * *

biological target: HLA-B*58:01; experiment: IEDB peptide-MHC binding, purified MHC/direct/fluorescence; filed as Kd, often an IC50 or EC50 that approximates it; bounds were set here for any values at or beyond the usual limits of such assays; details: source organism: Mycobacterium tuberculosis
observation-type: Kd

   sequence_record  test_system  measurement
0        GGTPAVEEW  HLA-B*58:01       202 nM

* * *

molecular target: HLA-A*24:02; test: IEDB peptide-MHC binding, purified MHC/direct/fluorescence; filed as Kd, often an IC50 or EC50 that approximates it; bounds were set here for any values at or beyond the usual limits of such assays; details: source organism: Influenza A virus (A/Ck/HK/2133.1/2003(H5N1))
observation-type: Kd

>>> print(df.to_string())
   sequence_record  observation_type  measurement
0        SADPLASLL                Kd      ≥ 20 µM
